# Test system: Staphylococcus aureus
# assayOverview: Antimicrobial activity against methicillin-susceptible Staphylococcus aureus ATCC 29213 assessed as growth inhibition after 18 hrs by MTT assay
# Assay type: functional
# assayContext: ATCC 29213, 18 h
recordedEndpoint: MIC

compound	recordedEndpoint	measuredValue
Clc1ccc(/N=N/c2c(-c3ccc(Br)cc3)[nH]c3ccccc23)cc1	MIC	6.3 µM
Clc1ccc(-c2cc3ccccc3[nH]2)cc1	MIC	> 100 µM
CC1(C)S[C@@H]2[C@H](NC(=O)Cc3ccccc3)C(=O)N2[C@H]1C(=O)O [PENICILLIN G]	MIC	23.9 µM
CN[C@H](CC(C)C)C(=O)N[C@H]1C(=O)N[C@@H](CC(N)=O)C(=O)N[C@H]2C(=O)N[C@H]3C(=O)N[C@H](C(=O)N[C@H](C(=O)O)c4cc(O)cc(O)c4-c4cc3ccc4O)[C@H](O)c3ccc(c(Cl)c3)Oc3cc2cc(c3O[C@@H]2O[C@H](CO)[C@@H](O)[C@H](O)[C@H]2O[C@H]2C[C@](C)(N)[C@H](O)[C@H](C)O2)Oc2ccc(cc2Cl)[C@H]1O [VANCOMYCIN]	MIC	2.8 µM
Clc1ccc(Oc2c(-c3ccc(Cl)cc3)[nH]c3ccc(Cl)cc23)cc1	MIC	1.6 µM
O=C(c1ccc(Cl)cc1)c1c(-c2ccc(Cl)cc2)[nH]c2ccccc12	MIC	> 100 µM
Clc1ccc(Sc2c(-c3ccc(Cl)cc3)[nH]c3ccc(Cl)cc23)cc1	MIC	1.6 µM
O=S(=O)(c1ccc(Cl)cc1)c1c(-c2ccc(Cl)cc2)[nH]c2ccccc12	MIC	> 100 µM
Fc1ccc2[nH]c(-c3ccc(Cl)cc3)c(Oc3ccc(Cl)cc3)c2c1	MIC	1.6 µM
Fc1cccc2c(Oc3ccc(Cl)cc3)c(-c3ccc(Cl)cc3)[nH]c12	MIC	1.6 µM
Clc1ccc(-c2cc3[nH]c4ccccc4c3cc2-c2ccc(Cl)cc2)cc1	MIC	> 100 µM
COc1ccc(/N=N/c2c(-c3ccc(OC)cc3)[nH]c3ccccc23)cc1	MIC	3.1 µM
Clc1ccc(Sc2c(-c3ccc(Cl)cc3)[nH]c3ccccc23)cc1	MIC	1.6 µM
Clc1ccc(/C=C/c2c[nH]c3ccccc23)cc1	MIC	25 µM
Clc1ccc(/C=C/c2[nH]c3ccccc3c2/C=C/c2ccc(Cl)cc2)cc1	MIC	> 100 µM
Brc1ccc(/N=N/c2c[nH]c3ccccc23)cc1	MIC	6.3 µM

---

# assayOverview: Antiproliferative activity against human HeLa cells after 72 hrs by MTT assay
# Format: cell-based
GI50 at 72 h strictly under 10 µM means 1.0; at 10 µM or over means 0.0.

In [3]: df
Out[3]:
                          structureassmiles  answerlabel
0  O=S(=O)(c1ccc(Cl)cc1)c1c(-c2ccc(Cl)cc2)[nH]c2ccccc12          0.0
1  Fc1cccc2c(Oc3ccc(Cl)cc3)c(-c3ccc(Cl)cc3)[nH]c12          0.0
2  Clc1ccc(Oc2c(-c3ccc(Cl)cc3)[nH]c3ccccc23)cc1          1.0
3  Clc1ccc(-c2cc3[nH]c4ccccc4c3cc2-c2ccc(Cl)cc2)cc1          0.0
4  Clc1ccc(Sc2c(-c3ccc(Cl)cc3)[nH]c3ccc(Cl)cc23)cc1          1.0
5  Clc1ccc(Sc2c(-c3ccc(Br)cc3)[nH]c3ccccc23)cc1          0.0
6  Clc1ccc(/N=N/c2c(-c3ccc(Br)cc3)[nH]c3ccccc23)cc1          0.0
7  COc1ccc(/N=N/c2c(-c3ccc(OC)cc3)[nH]c3ccccc23)cc1          0.0
8  Clc1ccc(/C=C/c2[nH]c3ccccc3c2/C=C/c2ccc(Cl)cc2)cc1          0.0

---

# System: Enterococcus faecalis
# assayOverview: Antimicrobial activity against low-level vancomycin-resistant Enterococcus faecalis ATCC 51299 assessed as growth inhibition after 18 hrs by MTT assay
# Format: functional
# assayContext: ATCC 51299, 18 h
MIC strictly under 10 µM means 1 (yes); at 10 µM or over means 0 (no).

structureAsSmiles	answerLabel
COc1ccc(/N=N/c2c(-c3ccc(OC)cc3)[nH]c3ccccc23)cc1	0 (no)
CC1(C)S[C@@H]2[C@H](NC(=O)Cc3ccccc3)C(=O)N2[C@H]1C(=O)O	0 (no)
CN[C@H](CC(C)C)C(=O)N[C@H]1C(=O)N[C@@H](CC(N)=O)C(=O)N[C@H]2C(=O)N[C@H]3C(=O)N[C@H](C(=O)N[C@H](C(=O)O)c4cc(O)cc(O)c4-c4cc3ccc4O)[C@H](O)c3ccc(c(Cl)c3)Oc3cc2cc(c3O[C@@H]2O[C@H](CO)[C@@H](O)[C@H](O)[C@H]2O[C@H]2C[C@](C)(N)[C@H](O)[C@H](C)O2)Oc2ccc(cc2Cl)[C@H]1O	0 (no)
Brc1ccc(/N=N/c2c[nH]c3ccccc23)cc1	0 (no)
Clc1ccc(/C=C/c2c[nH]c3ccccc23)cc1	0 (no)
Clc1ccc(Sc2c(-c3ccc(Br)cc3)[nH]c3ccccc23)cc1	1 (yes)
Fc1ccc2[nH]c(-c3ccc(Cl)cc3)c(Oc3ccc(Cl)cc3)c2c1	1 (yes)
Fc1cccc2c(Oc3ccc(Cl)cc3)c(-c3ccc(Cl)cc3)[nH]c12	1 (yes)
Clc1ccc(Sc2c(-c3ccc(Cl)cc3)[nH]c3ccccc23)cc1	1 (yes)
Clc1ccc(Sc2c(-c3ccc(Cl)cc3)[nH]c3ccc(Cl)cc23)cc1	1 (yes)
Clc1ccc(Oc2c(-c3ccc(Cl)cc3)[nH]c3ccc(Cl)cc23)cc1	0 (no)
Brc1ccc(/N=N/c2c(-c3ccc(Br)cc3)[nH]c3ccccc23)cc1	1 (yes)
Clc1ccc(Oc2c(-c3ccc(Cl)cc3)[nH]c3ccc(Br)cc23)cc1	0 (no)
Clc1ccc(/N=N/c2c(-c3ccc(Br)cc3)[nH]c3ccccc23)cc1	1 (yes)
Clc1ccc(-c2cc3[nH]c4ccccc4c3cc2-c2ccc(Cl)cc2)cc1	0 (no)
Clc1ccc(-c2cc3ccccc3[nH]2)cc1	0 (no)
O=S(=O)(c1ccc(Cl)cc1)c1c(-c2ccc(Cl)cc2)[nH]c2ccccc12	0 (no)
Clc1ccc(/C=C/c2[nH]c3ccccc3c2/C=C/c2ccc(Cl)cc2)cc1	0 (no)
COc1ccc2[nH]c(-c3ccc(Cl)cc3)c(Oc3ccc(Cl)cc3)c2c1	0 (no)
Clc1ccc(Oc2c(-c3ccc(Cl)cc3)[nH]c3ccccc23)cc1	0 (no)
Clc1ccc(/N=N/c2c[nH]c3ccccc23)cc1	0 (no)
O=C(c1ccc(Cl)cc1)c1c(-c2ccc(Cl)cc2)[nH]c2ccccc12	0 (no)

---

# assayOverview: Antiproliferative activity against human HeLa cells after 72 hrs by MTT assay
# Type: cell-based
recordedEndpoint: GI50 at 72 h (µM)

>>> df
                           structureassmiles  valueunits  limitqualifier  measuredvalue
 0  Fc1ccc2[nH]c(-c3ccc(Cl)cc3)c(Oc3ccc(Cl)cc3)c2c1          µM               =             13
 1  O=C(c1ccc(Cl)cc1)c1c(-c2ccc(Cl)cc2)[nH]c2ccccc12          µM               =             19
 2         Brc1ccc(/N=N/c2c[nH]c3ccccc23)cc1          µM               =             49
 3         Clc1ccc(/C=C/c2c[nH]c3ccccc23)cc1          µM               =             64
 4  Brc1ccc(/N=N/c2c(-c3ccc(Br)cc3)[nH]c3ccccc23)cc1          µM               =              9
 5  COc1ccc2[nH]c(-c3ccc(Cl)cc3)c(Oc3ccc(Cl)cc3)c2c1          µM               =             24
 6  Clc1ccc(Sc2c(-c3ccc(Cl)cc3)[nH]c3ccccc23)cc1          µM               =              6
 7  Clc1ccc(Oc2c(-c3ccc(Cl)cc3)[nH]c3ccc(Br)cc23)cc1          µM               =              3
 8             Clc1ccc(-c2cc3ccccc3[nH]2)cc1          µM               >            100
 9         Clc1ccc(/N=N/c2c[nH]c3ccccc23)cc1          µM               =             23
10  Clc1ccc(Oc2c(-c3ccc(Cl)cc3)[nH]c3ccc(Cl)cc23)cc1          µM               =              8
